conditions: in NMP, 323.15 K
readout-name: solubility (mole fraction)

So what does the record say about solubility (mole fraction) for C(=Cc1ccc(-c2nc3ccccc3o2)cc1)c1ccc(-c2nc3ccccc3o2)cc1 ?
3.18e-06

---

conditions: in NMP, 383.15 K
readout-name: solubility (mole fraction)
Reply briefly: the number, and no unit.

So what does the record say about solubility (mole fraction) for C(=Cc1ccc(-c2nc3ccccc3o2)cc1)c1ccc(-c2nc3ccccc3o2)cc1 ?
3.99e-05

---

conditions: in chlorobenzene, 338.15 K
readout-name: solubility (mole fraction)
Reply briefly: the number, and no unit.

So what does the record say about solubility (mole fraction) for C(=Cc1ccc(-c2nc3ccccc3o2)cc1)c1ccc(-c2nc3ccccc3o2)cc1 ?
2.1e-05
